Would you mind telling me the reported pKd of each entry?
Target: T1, biotin-labeled human ADM (human, not fully specified; biotin label (named human ADM-C-biotin in Example 1.4; position of the biotin not stated for the other lots))
T1 construct: Synthetic peptide; also called human ADM-C-biotin; hADM-Biotin
T1 peptide: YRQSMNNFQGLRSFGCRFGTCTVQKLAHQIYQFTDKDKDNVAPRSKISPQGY
Assay: BLI (Octet RED96e), as in Example 3
Just the number, please; pKd means minus log10 of the concentration in mol/L.

Exam item: Quick check: pKd of Ab2004.Am31 (IgG1 antibody) (antibody, V domains shown, Expressed in CHO cells, human IgG1/kappa) VH: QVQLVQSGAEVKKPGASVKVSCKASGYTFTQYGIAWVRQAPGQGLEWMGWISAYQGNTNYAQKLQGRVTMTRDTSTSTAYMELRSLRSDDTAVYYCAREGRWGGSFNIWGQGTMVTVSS VL: DIQMTQSPSSLSASVGDRVTITCRASEGISEYLAWYQQKPGKAPKLLIYDASNLETGVPSRFSGSGSGTDFTFTISSLQPEDIATYYCQQYDNLPLTFGGGTKVEIKR ?
Marked response: 9.54

Exam item: Quick check: pKd of Enibarcimab (antibody, V domains shown) VH: QVQLVQSGAEVKKPGSSVKVSCKASGYTFSRYWIEWVRQAPGQGLEWIGEILPGSGSTNYNQKFQGRVTITADTSTSTAYMELSSLRSEDTAVYYCTEGYEYDGFDYWGQGTTVTVSS VL: DVVLTQSPLSLPVTLGQPASISCRSSQSIVYSNGNTYLEWYLQRPGQSPRLLIYRVSNRFSGVPDRFSGSGSGTDFTLKISRVEAEDVGVYYCFQGSHIPYTFGGGTKLEIKR ?
Marked response: 9.25
